- assayTarget: rat A1 adenosine receptor (Rattus norvegicus, UniProt P25099)
- Construct: Membranes were prepared from rat cerebral cortex isolated from freshly euthanized rats
- Sequence (P25099 whole entry): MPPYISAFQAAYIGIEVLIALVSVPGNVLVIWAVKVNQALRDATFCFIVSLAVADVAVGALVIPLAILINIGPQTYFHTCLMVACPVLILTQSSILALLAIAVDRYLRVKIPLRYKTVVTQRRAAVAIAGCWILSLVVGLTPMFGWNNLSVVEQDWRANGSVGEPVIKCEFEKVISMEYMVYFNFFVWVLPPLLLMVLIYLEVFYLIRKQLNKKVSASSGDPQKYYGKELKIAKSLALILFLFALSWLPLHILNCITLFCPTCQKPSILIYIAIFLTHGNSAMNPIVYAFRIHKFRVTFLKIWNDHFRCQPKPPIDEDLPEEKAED
- test: Radioligand ([3H]DPCPX) competition binding assay on rat A1 adenosine receptor (rat cerebral cortex membranes)
- testSettings: [3H]DPCPX 1 nM, Cheng-Prusoff from IC50
What Ki was measured for each of the following?
One number for each entry, in nM.

Some solved cases for reference:
Report Ki for CCCN1C(=O)N2C[C@@H](C(C)C)N=C2c2[nH]c(C34CCC(CCC(=O)O)(CC3)CC4)nc21 please.
10.5

Request the reported Ki associated with CCCN1C(=O)N2C[C@@H](CC)N=C2c2[nH]c(C34CCC(CCC(=O)O)(CC3)CC4)nc21
8.38

# Ki lookup, item CCCN1C(=O)N2C(=NC[C@@H]2C)c2[nH]c(C34CCC(O)(CC3)CC4)nc21
51.3

# lookup: Ki of CCCN1C(=O)N2C[C@@H](CC)N=C2c2[nH]c(C34CCC(O)(CC3)CC4)nc21
5.75

// Ki lookup, key: CCCN1C(=O)N2C[C@@H](C)N=C2c2[nH]c(C34CCC(O)(CC3)CC4)nc21
9.92

// query Ki value for entry CCCN1C(=O)N2C[C@@H](C(C)CC)N=C2c2[nH]c(C34CCC(O)(CC3)CC4)nc21 (some centres unmarked)
14.1

# lookup: Ki of CCCN1C(=O)N2C[C@@H](Cc3ccccc3)N=C2c2[nH]c(C34CCC(O)(CC3)CC4)nc21
708

What value of Ki has been recorded for this entry: CCC[C@@H]1CN2C(=O)N(CCC)c3nc(C45CCC(O)(CC4)CC5)[nH]c3C2=N1
43.2

Required: Ki, one value per compound below.
1. CCCN1C(=O)N2C[C@H](C(C)CC)N=C2c2[nH]c(C34CCC(O)(CC3)CC4)nc21 (some centres unmarked)
2. CCCN1C(=O)N2C[C@@H](CC)N=C2c2[nH]c(C34CCC(C(=O)O)(CC3)CC4)nc21
3. CCCN1C(=O)N2C[C@@H](c3ccccc3)N=C2c2[nH]c(C34CCC(O)(CC3)CC4)nc21

1: 93; 2: 40.2; 3: 68.3

Answer for every listed entry: what is its Ki? The entries follow.
1. CCCN1C(=O)N2C[C@@H](C(C)C)N=C2c2[nH]c(C34CCC(O)(CC3)CC4)nc21
2. CCCN1C(=O)N2C[C@@H](C)N=C2c2[nH]c(C34CCC(CCC(=O)O)(CC3)CC4)nc21
3. CCCN1C(=O)N2C[C@@H](CC(C)C)N=C2c2[nH]c(C34CCC(O)(CC3)CC4)nc21
4. CCCN1C(=O)N2C[C@@H](CC)N=C2c2[nH]c(C34CCC(CC3)CC4)nc21
5. CCCN1C(=O)N2C(=NC[C@H]2C)c2[nH]c(C34CCC(O)(CC3)CC4)nc21

1. 4.4
2. 13.7
3. 167
4. 26.7
5. 68.5

Fill blank: measured Ki of the compound CCCN1C(=O)N2C[C@@H](C(C)(C)C)N=C2c2[nH]c(C34CCC(O)(CC3)CC4)nc21 is ____.
155
